# growth inhibition annotations
- TEST DESCRIPTION: NCI Yeast Anticancer Drug Screen. Data for the sgs1 mgt1 strain (AID 161);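 note: 0% = growth of cultures given vehicle only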
- RUN PARAMETERS: S. cerevisiae sgs1 mgt1 strain, at 50.0 µM, hits give high values
Compounds without any hit were thinned out: in the full panel of roughly 79,000, 15% have a hit.

[
  {
    "COMPOUND": "Cc1ccccc1NC(=O)CC#N",
    "UNIT OF MEASUREMENT": "%",
    "growth inhibition": 1.5
  },
  {
    "COMPOUND": "Nc1cc(Cl)c(N)c(Cl)c1",
    "UNIT OF MEASUREMENT": "%",
    "growth inhibition": -9.65
  },
  {
    "COMPOUND": "CC(C(=O)O)N(C)C(=O)c1cnc2ccccc2n1 (configuration not stated)",
    "UNIT OF MEASUREMENT": "%",
    "growth inhibition": -1.5
  },
  {
    "COMPOUND": "CSCCNC(=O)CS(=O)(=O)c1ccc(C)cc1",
    "UNIT OF MEASUREMENT": "%",
    "growth inhibition": 5.25
  },
  {
    "COMPOUND": "CN(C(N)=O)C1CCCC1",
    "UNIT OF MEASUREMENT": "%",
    "growth inhibition": -5.65
  },
  {
    "COMPOUND": "O=C(Nc1ccc(Cl)cc1Cl)C(=O)C(C(=O)c1ccc2ccccc2c1)C1OC(=O)c2ccccc21 (configuration not stated)",
    "UNIT OF MEASUREMENT": "%",
    "growth inhibition": 2.7
  },
  {
    "COMPOUND": "COC1(C)COC(C)(OC)CO1 (configuration not stated)",
    "UNIT OF MEASUREMENT": "%",
    "growth inhibition": 24.1
  }
]
